Where these numbers come from: ChEMBL document CHEMBL1151736

// values below are reported Ratio IC50
Tested on: Human immunodeficiency virus 1
assayRemarks: Selectivity ratio of IC50 for HIV1 RNase H to IC50 for HIV1 integrase
measuredEndpoint: Ratio IC50

structureNotation: O=C1Cc2ccc([N+](=O)[O-])cc2C(=O)N1O
measuredEndpoint: Ratio IC50
signQualifier: =
measuredValue: 5.6

structureNotation: O=C1Cc2ccc(Br)cc2C(=O)N1O
measuredEndpoint: Ratio IC50
signQualifier: >
measuredValue: 166

structureNotation: O=C1Cc2ccc(-c3ccc(F)cc3)cc2C(=O)N1O
measuredEndpoint: Ratio IC50
signQualifier: =
measuredValue: 15.8

structureNotation: O=C(Nc1ccc2c(c1)C(=O)N(O)C(=O)C2)c1cccc([N+](=O)[O-])c1
measuredEndpoint: Ratio IC50
signQualifier: =
measuredValue: 1.2

structureNotation: O=C1Cc2ccc(-c3ccc(O)cc3)cc2C(=O)N1O
measuredEndpoint: Ratio IC50
signQualifier: =
measuredValue: 1.3

structureNotation: O=C1Cc2ccc(-c3ccccc3)cc2C(=O)N1O
measuredEndpoint: Ratio IC50
signQualifier: >
measuredValue: 47

structureNotation: CC(=O)Nc1ccc2c(c1)C(=O)N(O)C(=O)C2
measuredEndpoint: Ratio IC50
signQualifier: =
measuredValue: 69

structureNotation: O=C1Cc2ccc(I)cc2C(=O)N1O
measuredEndpoint: Ratio IC50
signQualifier: =
measuredValue: 48.3

structureNotation: O=C1Cc2ccc(Cl)cc2C(=O)N1O
measuredEndpoint: Ratio IC50
signQualifier: =
measuredValue: 36.1

structureNotation: O=C(Cc1ccccc1)Nc1ccc2c(c1)C(=O)N(O)C(=O)C2
measuredEndpoint: Ratio IC50
signQualifier: >
measuredValue: 889

structureNotation: CCCCC(=O)Nc1ccc2c(c1)C(=O)N(O)C(=O)C2
measuredEndpoint: Ratio IC50
signQualifier: >
measuredValue: 4.2

----------
// values below are reported inhibition
studySystem: Human immunodeficiency virus type 1 reverse transcriptase (Human immunodeficiency virus 1)
assayRemarks: Inhibition of HIV1 reverse transcriptase at 50 uM

structureNotation: CCCCC(=O)Nc1ccc2c(c1)C(=O)N(O)C(=O)C2
inhibition: 40%

structureNotation: O=C(Cc1ccc(F)cc1)Nc1ccc2c(c1)C(=O)N(O)C(=O)C2
inhibition: 40%

structureNotation: O=C1Cc2ccc([N+](=O)[O-])cc2C(=O)N1O
inhibition: 40%

structureNotation: O=C1Cc2ccc(Cl)cc2C(=O)N1O
inhibition: 40%

structureNotation: O=C1Cc2ccc(-c3ccccc3)cc2C(=O)N1O
inhibition: 40%

structureNotation: O=C1Cc2ccc(-c3ccc(O)cc3)cc2C(=O)N1O
inhibition: 50%

structureNotation: O=C(Cc1ccccc1)Nc1ccc2c(c1)C(=O)N(O)C(=O)C2
inhibition: 40%

structureNotation: O=C(Nc1ccc2c(c1)C(=O)N(O)C(=O)C2)c1cccc([N+](=O)[O-])c1
inhibition: 40%

structureNotation: O=C1Cc2ccc(O)cc2C(=O)N1O
inhibition: 40%

structureNotation: CC(=O)Nc1ccc2c(c1)C(=O)N(O)C(=O)C2
inhibition: 40%

structureNotation: O=C1Cc2ccccc2C(=O)N1O
inhibition: 40%

structureNotation: O=C1Cc2ccc(-c3ccc(F)cc3)cc2C(=O)N1O
inhibition: 60%

----------
assayRemarks: Cytotoxicity against human MT4 cells by MTT assay
Type: cell-based
measuredEndpoint: CC50

structureNotation: O=C1Cc2ccc(-c3ccc(F)cc3)cc2C(=O)N1O
measuredEndpoint: CC50
measuredValue: > 46 µM
--
structureNotation: O=C(Cc1ccc(F)cc1)Nc1ccc2c(c1)C(=O)N(O)C(=O)C2
measuredEndpoint: CC50
measuredValue: > 116 µM
--
structureNotation: O=C(Nc1ccc2c(c1)C(=O)N(O)C(=O)C2)c1ccccc1
measuredEndpoint: CC50
measuredValue: 84 µM
--
structureNotation: CCCCC(=O)Nc1ccc2c(c1)C(=O)N(O)C(=O)C2
measuredEndpoint: CC50
measuredValue: > 250 µM
--
structureNotation: O=C1Cc2ccc(-c3ccc(O)c(O)c3)cc2C(=O)N1O
measuredEndpoint: CC50
measuredValue: > 89 µM
--
structureNotation: O=C1Cc2ccc(-c3ccccc3)cc2C(=O)N1O
measuredEndpoint: CC50
measuredValue: > 66 µM
--
structureNotation: O=C(Cc1ccccc1)Nc1ccc2c(c1)C(=O)N(O)C(=O)C2
measuredEndpoint: CC50
measuredValue: > 121 µM
--
structureNotation: O=C1Cc2ccc(O)cc2C(=O)N1O
measuredEndpoint: CC50
measuredValue: > 48 µM
--
structureNotation: O=C1Cc2ccc(-c3ccc(O)cc3)cc2C(=O)N1O
measuredEndpoint: CC50
measuredValue: > 186 µM
--
structureNotation: O=C(Nc1ccc2c(c1)C(=O)N(O)C(=O)C2)c1ccc(F)cc1
measuredEndpoint: CC50
measuredValue: > 120 µM
--
structureNotation: O=C1Cc2ccc(Br)cc2C(=O)N1O
measuredEndpoint: CC50
measuredValue: > 64 µM
--
structureNotation: O=C1Cc2ccc([N+](=O)[O-])cc2C(=O)N1O
measuredEndpoint: CC50
measuredValue: > 205 µM
--
structureNotation: CC(=O)Nc1ccc2c(c1)C(=O)N(O)C(=O)C2
measuredEndpoint: CC50
measuredValue: > 250 µM
--
structureNotation: O=C1Cc2ccc(-c3ccc(C(F)(F)F)cc3)cc2C(=O)N1O
measuredEndpoint: CC50
measuredValue: > 47 µM
--
structureNotation: O=C1Cc2ccc(Cl)cc2C(=O)N1O
measuredEndpoint: CC50
measuredValue: > 48 µM
--
structureNotation: O=C1Cc2ccc(I)cc2C(=O)N1O
measuredEndpoint: CC50
measuredValue: > 70 µM
